Experimental Details: High-temperature color development rate (A35/A23×100), temperature dependency
Format: physicochemical
Condition Summary: photochromic laminate by coating method, comparative compounds; corresponds to A35/A23×100
In this section, each of the compounds is paired with its reported Temperature change rate (%).
Please state the number and follow it with the unit.

Worked examples, 5 compounds total:
COc1ccc(C2(c3ccc(OC)cc3)C=Cc3c4c(c5cc(N6CCCCC6)c(OC)cc5c3O2)-c2ccccc2C4(C)C)cc1 [Formula (E), reference compound] | 71%
COc1ccc(C2(c3ccc(OC)cc3)C=Cc3c4c(c5cc(N6CCOCC6)c(OC)cc5c3O2)-c2ccccc2C4(C)C)cc1 [Formula (A), reference compound] | 69%
COc1ccc(C2(c3ccc(OC)cc3)C=Cc3c4c(c5cc(N6CCc7ccccc7C6)c(OC)cc5c3O2)-c2ccccc2C4(C)C)cc1 [Formula (F), reference compound] | 71%
CCCCOc1ccc(C2(c3ccc(OCCCC)cc3)C=Cc3c4c(c5cc(NC(=O)c6ccccc6)c(OC)cc5c3O2)-c2ccccc2C4(C)C)cc1 [Formula (B), reference compound] | 68%
COc1ccc(C2(c3ccc(OC)cc3)C=Cc3c4c(c5ccc(OC)cc5c3O2)-c2ccccc2C4(C)C)cc1 [Formula (D), reference compound] | 63%

Here is the next item to consider.
# query: Temperature change rate (%) of entry COc1ccc(C2(c3ccc(OC)cc3)C=Cc3c4c(c5cc(Sc6c(C)cccc6C)c(OC)cc5c3O2)-c2ccccc2C4(C)C)cc1 [Formula (C), reference compound]
65%

* * *

Each entry below carries its reported A35/A23 *100 (%).
Experimental Details: High-temperature color development rate (A35/A23×100), temperature dependency
Assay type: physicochemical
Condition Summary: photochromic laminate by coating method
Express it in %; write the number only.

Below, 3 compounds whose answers are already recorded.
CCCC1(CCC)c2ccccc2-c2c1c1c(c3cc(OC)c(N(c4ccccc4)c4ccccc4)cc23)OC(c2ccc(C)cc2)(c2ccc(N(C)c3ccccc3)cc2)C=C1 (centres unmarked) | 68
CCCCC1(CCCC)c2cc([Si](C)(C)C(C)(C)C)ccc2-c2c1c1c(c3cc(OC)c(N(CC)c4ccccc4)cc23)OC(c2ccc(OC)cc2)(c2ccc(OCCC)cc2)C=C1 (centres unmarked) | 70
CCCOc1ccc(C2(c3ccc(OCCC)cc3)C=Cc3c4c(c5cc(N6CCOc7cc(C)ccc76)c(OC)cc5c3O2)-c2ccc(-c3ccc(C(F)(F)F)cc3)cc2C4(CCOC)CCOC)cc1 | 65

# get_value(readout='A35/A23 *100 (%)', item= "CCCC1(CCC)c2ccccc2-c2c1c1c(c3cc(OC)c(N4CCOc5ccccc54)cc23)OC(c2ccc(OC)cc2)(c2ccc(OC)cc2)C=C1" )
66

Which A35/A23 *100 (%) value is on record for "CCCOc1ccc(C2(c3ccc(OCCC)cc3)C=Cc3c4c(c5cc(N(CCOC)c6ccccc6)c(OC)cc5c3O2)-c2ccccc2C42CCCCCCC2)cc1" ?
71

* * *

Experimental Details: 35°C color optical density (A35): absorbancy difference ε(240)-ε(0) after 240 s light irradiation at 35°C
Assay type: physicochemical
Condition Summary: photochromic laminate by coating method, 240 s irradiation
Measured Endpoint: A35 (-)

CCCCN(c1ccc(F)cc1)c1cc2c3c(c4c(c2cc1OC)OC(c1ccc(OC)cc1)(c1ccc(OC)cc1)C=C4)C(CCCCOC)(CCCCOC)c1ccccc1-3 [Example 16 Formula (77)] | 0.84 -
CCCOc1ccc(C2(c3ccc(OCCC)cc3)C=Cc3c4c(c5cc(N(C)c6ccc(C)cc6)c(OC)cc5c3O2)-c2ccccc2C4(CCCCOC)CCCCOC)cc1 [Example 20 Formula (85)] | 0.85 -

Given the compound CCCOc1ccc(C2(c3ccc(OCCC)cc3)C=Cc3c4c(c5cc(N6CCOc7cc(C)ccc76)c(OC)cc5c3O2)-c2ccc(-c3ccc(C(F)(F)F)cc3)cc2C4(CCOC)CCOC)cc1 [Example 48 Formula (106)] , what is its reported A35 (-)?
0.88 -

I would be grateful if you could share the reported A35 (-) for CCCCCCCCC1(CCCCCCCC)c2cc([Si](c3ccccc3)(c3ccccc3)c3ccccc3)ccc2-c2c1c1c(c3cc(OC)c(N(c4ccccc4)c4ccccc4)cc23)OC(c2ccc(OCCC)cc2)(c2ccc(OCCC)cc2)C=C1 [Example 56 Formula (128)] .
1.24 -

Suppose we examine the compound CCCOc1ccc(C2(c3ccc(OCCC)cc3)C=Cc3c4c(c5cc(N(c6ccc(C)cc6)c6ccc(C)cc6)c(OC)cc5c3O2)-c2ccccc2C4(CCCCOCOC)CCCCOCOC)cc1 [Example 14 Formula (71)] ; what A35 (-) value has been reported?
1.33 -

* * *

Experimental Details: 23°C color optical density (A23): absorbancy difference ε(240)-ε(0) after 240 s light irradiation at 23°C
Type: physicochemical
Condition Summary: binder sheet (binder method), 240 s irradiation
Measured Endpoint: A23 (-)

GET /values?readout=A23 (-)&item= "CCCCC1(CCCC)c2ccccc2-c2c1c1c(c3cc(OC)c(N(c4ccc(F)cc4)c4ccc(F)cc4)cc23)OC(c2ccc(OC)cc2)(c2ccc(OC)cc2)C=C1"
1.40 -

So what does the record say about A23 (-) for "COc1ccc(C2(c3ccc(OC)cc3)C=Cc3c4c(c5cc(N(C)c6ccccc6)c(OC)cc5c3O2)-c2ccccc2C4(C)C)cc1" ?
1.17 -

* * *

Measured Residual rate (%) accompanies every entry in the list below.
Experimental Details: Residual rate (A90/A0×100) after 90 h accelerated deterioration in xenon weather meter X25, color developing durability
Format: physicochemical
Condition Summary: binder sheet (binder method); xenon weather meter 90 hours
Numeric only. Scale: %

COc1ccc(C2(c3ccc(OC)cc3)C=Cc3c4c(c5cc(N6CCCCC6)c(OC)cc5c3O2)-c2ccccc2C4(C)C)cc1 [Formula (E), reference compound] | 68
CCCOc1ccc(C2(c3ccc(OCCC)cc3)C=Cc3c4c(c5cc(N6CCOc7cc(C)ccc76)c(OC)cc5c3O2)-c2ccc(-c3ccc(C(F)(F)F)cc3)cc2C4(CCOC)CCOC)cc1 [Example 48 Formula (106)] | 93
COc1ccc(C2(c3ccc(OC)cc3)C=Cc3c4c(c5cc(N6CCc7ccccc7C6)c(OC)cc5c3O2)-c2ccccc2C4(C)C)cc1 [Formula (F), reference compound] | 64

// query Residual rate (%) value for entry COc1ccc(C2(c3ccc(OC)cc3)C=Cc3c4c(c5cc(N(C)c6ccccc6)c(OC)cc5c3O2)-c2ccccc2C4(C)C)cc1 [Example 1 Formula (28)]
95

* * *

Experimental Details: Maximum absorption wavelength (λmax) after color development, spectrophotometer MCPD3000
Type: physicochemical
Condition Summary: photochromic laminate by coating method, 40 µm photochromic layer on thiourethane lens, 0.25 mmol compound per 100 g monomers
Measured Endpoint: Maximum absorption wavelength (nm)
Quick note: give the figure in nm, leave out the unit.

CCCCCCOc1ccc(C2(c3ccc(OC)cc3)C=Cc3c4c(c5cc(N(c6ccc(C)cc6)c6ccc(OC)cc6)c(OC)cc5c3O2)-c2ccccc2C42CC(C)(C)CC(C)(C)C2)cc1 (centres unmarked) | 523
CCCOc1ccc(C2(c3ccc(OCCC)cc3)C=Cc3c4c(c5cc(N(CCOC)c6ccccc6)c(OC)cc5c3O2)-c2ccccc2C42CCCCCCC2)cc1 | 499
COc1ccc(C2(c3ccc(OC)cc3)C=Cc3c4c(c5cc(N(C)c6ccccc6)c(OC)cc5c3O2)-c2ccccc2C4(C)C)cc1 | 501
CCCCCCCCC1(CCCCCCCC)c2cc([Si](c3ccccc3)(c3ccccc3)c3ccccc3)ccc2-c2c1c1c(c3cc(OC)c(N(c4ccccc4)c4ccccc4)cc23)OC(c2ccc(OCCC)cc2)(c2ccc(OCCC)cc2)C=C1 | 508

Item "CCCOc1ccc(C2(c3ccc(OCCC)cc3)C=Cc3c4c(c5cc(N(C)c6ccc(C)cc6)c(OC)cc5c3O2)-c2ccccc2C4(CCCCOC)CCCCOC)cc1" has what recorded Maximum absorption wavelength (nm)?
503

* * *

Entries and their measured A23 (-) follow.
Experimental Details: 23°C color optical density (A23): absorbancy difference ε(240)-ε(0) after 240 s light irradiation at 23°C
Type: physicochemical
Condition Summary: photochromic laminate by coating method, 240 s irradiation, at the maximum absorption wavelength

CCCCN(c1ccccc1)c1cc2c3c(c4c(c2cc1OC)OC(c1ccc(OC)cc1)(c1ccc(OCCC)cc1)C=C4)C(CC)(CC)c1cc(OC(F)(F)F)ccc1-3 (centres unmarked) | 0.98 -
COc1ccc(C2(c3ccc(N4CCOCC4)cc3)C=Cc3c4c(c5cc(N6CCOc7ccccc76)c(C)cc5c3O2)-c2ccc(OC)cc2C4(CCCCF)CCCCF)cc1 (centres unmarked) | 1.25 -
CCCC1(CCC)c2cc(C)ccc2-c2c1c1c(c3cc(OC)c(N(C)c4ccccc4)cc23)OC(c2ccc(OC)cc2)(c2ccc(OC)cc2)C=C1 | 1.25 -

Endpoint output: A23 (-) of "CCCC1(CCC)c2ccccc2-c2c1c1c(c3cc(OC)c(N(C)c4ccccc4)cc23)OC(c2ccc(OC)cc2)(c2ccc(OC)cc2)C=C1" . Value?
1.0897 -

Param item = CCCC1(CCC)c2ccccc2-c2c1c1c(c3cc(OC)c(N(c4ccccc4)c4ccccc4)cc23)OC(c2ccc(C)cc2)(c2ccc(N(C)c3ccccc3)cc2)C=C1 (centres unmarked) ; retrieve measured A23 (-).
1.51 -
